# System: HT-29
# Test Name: NCI tumour cell line growth inhibition, 48 h
The source made the active and inactive calls. Rule as the data show it: active = GI50 up to about 1.1 µM and inactive = higher.
// classify into 1 for active, -1 for inactive

Please review the following examples before continuing.
• COc1ccc(/C=C/C(=O)Oc2ccccc2OC)cc1 = -1
• CCOP(C)(=O)C(N)Cc1ccc(OC)c(OC)c1 (stereo not given) = -1
• Cc1ccc(S(=O)(=O)N2CC2CCCCC=O)cc1 (stereo not given) = -1

Status in this test for N#CC(NNC(=O)c1c(Cl)c(Cl)c(Cl)c(Cl)c1-c1nc2cc(C(=O)c3ccccc3)ccc2[nH]1)c1cccc(Oc2ccccc2)c1 (stereo not given) ?
-1

Status in this test for "COC(=O)c1cc(/C=C\c2cc(OC)ccc2OC)ccc1OC" ?
-1

Status in this test for "COC[C@H]1OC(=O)c2coc3c2[C@@]1(C)C1=C(C3=O)[C@@H]2CCC(=O)[C@@]2(C)C[C@H]1OC(C)=O" ?
-1

Status in this test for "CC(=O)C(=NNc1ccc(-n2c(C)nc3ccc(Br)cc3c2=O)cc1)C(C)=O" ?
-1

Status in this test for "COc1ccc(/C(=N\Nc2ccccn2)c2ccccn2)cc1" ?
1
